System: C. elegans
RUN_PARAMETERS: Table S2, C. elegans SS assay, 110 μM, 0 h, averages of 4 data points
Where a SMILES comes first, the peptide text is derived from it.
ASSAY_READOUT: Percentage of motility inhibition 0 h (%)
API: value field is a number in %; no unit string.

Output measured Percentage of motility inhibition 0 h for this item: CC(=O)O[C@H]1C(=O)[C@@]2(C)[C@H]([C@H](OC(=O)c3ccccc3)[C@]3(O)C[C@H](OC(=O)[C@H](O)[C@@H](NC(=O)c4ccccc4)c4ccccc4)C(C)=C1C3(C)C)[C@]1(OC(C)=O)CO[C@@H]1C[C@@H]2O [7-epi-Taxol] 13

Return Percentage of motility inhibition 0 h (reported value) for this molecule: Nc1ncnc2nc[nH]c12.Nc1ncnc2nc[nH]c12.O=S(=O)(O)O [Adenine (hemisulfate)] 3

Specify Percentage of motility inhibition 0 h for COC(=O)C1=CO[C@@H](O[C@@H]2O[C@H](CO[C@@H]3O[C@H](CO)[C@@H](O)[C@H](O)[C@H]3O)[C@@H](O)[C@H](O)[C@H]2O)[C@@H]2C(CO)=CC[C@H]12 [Genipin 1-β-D-gentiobioside] and stop. 0

Please give measured Percentage of motility inhibition 0 h of the following entry: `COc1cc(O)c2c(=O)cc(-c3ccccc3)oc2c1` 0

For the molecule `C=C(C(=O)O)[C@H]1CC[C@H](C)[C@@H]2CC(=O)C(C)=C2C1` , give its reported Percentage of motility inhibition 0 h. 0

Respond only with Percentage of motility inhibition 0 h recorded for CC(C)(O)CCC(=O)[C@](C)(O)C1[C@H](O)C[C@@]2(C)[C@@H]3CC=C4[C@@H](C[C@H](O)[C@@H](O)C4(C)C)[C@]3(C)C(=O)C[C@]12C (stereo partly shown) 7

Give a short answer stating reported Percentage of motility inhibition 0 h for Cc1nnc(C(=O)NC(C)(C)c2nc(C(=O)NCc3ccc(F)cc3)c([O-])c(=O)n2C)o1.[K+] [Raltegravir (potassium salt)] . 3

Answer with the recorded Percentage of motility inhibition 0 h of C[C@H](CC[C@@H](O[C@@H]1O[C@H](CO)[C@@H](O)[C@H](O)[C@H]1O)C(C)(C)O)[C@H]1CC[C@@]2(C)[C@@H]3CC=C4[C@@H](CC[C@H](O[C@@H]5O[C@H](CO)[C@@H](O)[C@H](O)[C@H]5O)C4(C)C)[C@]3(C)[C@H](O)C[C@]12C [Mogroside IIe] only. 0

Supply recorded Percentage of motility inhibition 0 h for CCn1cc(C(=O)O)c(=O)c2cc(F)c(N3CCNC(C)C3)c(F)c21.Cl (stereo not shown) [Lomefloxacin (hydrochloride)] here. 39

Report Percentage of motility inhibition 0 h, nothing else, for this molecule: `c1ccc2c(Cc3[nH]c4ccccc4c3Cc3c[nH]c4ccccc34)c[nH]c2c1` 21

Determine its reported Percentage of motility inhibition 0 h: `C[C@]1(O)C[C@@H](O)[C@@H]2C=CO[C@@H](O[C@@H]3O[C@H](CO)[C@@H](O)[C@H](O)[C@H]3O)[C@@H]21` 0

Please report Percentage of motility inhibition 0 h for the following molecule: NCC(=O)N1CCC[C@H]1C(=O)O [H‐Gly‐Pro‐OH] (H-Gly-Pro-OH) 8

Could you please provide reported Percentage of motility inhibition 0 h for O[C@H]1[C@H]2c3cc4c(cc3CN3CC[C@H](C[C@@H]1O)[C@H]23)OCO4 [Dihydrolycorine] ? Thanks! 0

Supply reported Percentage of motility inhibition 0 h belonging to this molecule: `C=C(C)[C@@H]1CC=C(C=O)CC1` 22

Respond only with Percentage of motility inhibition 0 h recorded for C[C@H]1[C@H](C)CC[C@]2(C(=O)O)CC[C@]3(C)C(=CC[C@@H]4[C@@]5(C)CC[C@H](O)C(C)(C)[C@@H]5CC[C@]43C)[C@H]12 [3-Epiursolic Acid] 3

Look up and report measured Percentage of motility inhibition 0 h for this entry: CC(C)=CCC[C@@](C)(O)[C@H]1CC[C@]2(C)[C@@H]1[C@H](O)C[C@@H]1[C@@]3(C)CC[C@H](O[C@@H]4O[C@H](CO)[C@@H](O)[C@H](O)[C@H]4O[C@@H]4O[C@H](CO)[C@@H](O)[C@H](O)[C@H]4O)C(C)(C)[C@@H]3CC[C@]12C [(20R)-Ginsenoside Rg3] 22

For CC(C)=CCC[C@@](O)(CO[C@@H]1O[C@H](CO)[C@@H](O)[C@H](O)[C@H]1O)[C@H]1CC[C@]2(C)[C@@H]1CC[C@@H]1[C@@]3(C=O)CC[C@H](O[C@@H]4OC[C@H](O)[C@H](O[C@@H]5OC[C@@H](O)[C@H](O)[C@H]5O)[C@H]4O[C@@H]4O[C@@H](C)[C@H](O)[C@@H](O)[C@H]4O)C(C)(C)[C@@H]3CC[C@]12C [Gypenoside XLIX] , write its Percentage of motility inhibition 0 h. 3

Answer with the recorded Percentage of motility inhibition 0 h of NC(=O)c1ccc[n+]([C@@H]2O[C@H](CO)[C@@H](O)[C@H]2O)c1.[Cl-] [Nicotinamide riboside (chloride)] only. 15

Give recorded Percentage of motility inhibition 0 h. C[C@H](CC(=O)[C@@H]1OC1(C)C)[C@H]1C(=O)C[C@@]2(C)C3=CC[C@H]4C(C)(C)[C@@H](O[C@@H]5OC[C@@H](O)[C@H](O)[C@H]5O)CC[C@@]45C[C@@]35[C@@H](O)C[C@]12C [Cimicifugoside H-1] 0

For CC(C)(O)[C@@H]1CC[C@](C)([C@H]2[C@@H](O)C[C@@]3(C)[C@@H]4C[C@H](O)[C@H]5C(C)(C)[C@@H](O[C@@H]6OC[C@@H](O)[C@H](O)[C@H]6O[C@@H]6O[C@H](CO)[C@@H](O)[C@H](O)[C@H]6O)CC[C@@]56C[C@@]46CC[C@]23C)O1 [Astragaloside III] , write its Percentage of motility inhibition 0 h. 0

Consider the molecule O=C([O-])c1ccccc1O.[Na+] [Sodium Salicylate] . State its measured Percentage of motility inhibition 0 h. 2

Specify measured Percentage of motility inhibition 0 h for `Nc1ncnc2c1ncn2[C@@H]1O[C@H](CO)[C@@H](O)[C@@H]1O` . 4
